- tgt: T1, UNK ZnF1-3 (human, UniProt Q9C0B0 31-174)
- T1 sequence: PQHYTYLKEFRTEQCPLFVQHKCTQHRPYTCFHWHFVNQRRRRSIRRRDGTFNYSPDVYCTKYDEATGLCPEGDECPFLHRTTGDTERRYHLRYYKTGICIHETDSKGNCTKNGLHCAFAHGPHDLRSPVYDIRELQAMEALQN
- measurement-protocol: nsRBNS (natural sequence RNA bind-n-seq); RBNS binding buffer (assumed for nsRBNS): 25 mM Tris pH 7.5, 150 mM KCl, 3 mM MgCl2, 0.01% Triton X-100, 500 ug/ml BSA, 20 U/ml SUPERase-In, 4 C; UNK is unkempt and MSI1 is Musashi-1; names of the RNAs are library labels; protein concentration not given here; high values mean tight binding
Over roughly 24,000 sequences, “enrichment r” has its median near 0.99; the highest 2% begin near 3.7. The sample as a whole holds a higher share of the highest values than the screen did.
Mark Condition met only for binding signal values smaller than 1 enrichment R; exact matches and larger values are Condition not met.

# example entries with known answers
[
  {
    "binder": "chr18:35731629:35731630:+_ENSMUSG00000037236_ENSMUST00000166793|mus_mus|motif|central (ssRNA) RNA: GGGAGUUCUACAGUCCGACGAUCUUAUAGAUCAAAAAAAAAAAAAAAAGUUUUAAAAGAUGGCCAAAAAGAAAGCUCAAGCGGGAAAGCUAGGUUAACUUUGCUUCAAAAAUGGUAACGCCAAGAAAAAGGAUCAAUAAGGACCAACAGAGGAUUGAGCAUCA",
    "label": "Condition not met"
  },
  {
    "binder": "chr16:94651144:94651145:+_ENSMUSG00000040785_ENSMUST00000117648|mus_hu|mus_mus_mus_hu_True|58_98 (ssRNA) RNA: GGGAGUUCUACAGUCCGACGAUCAUUUUCUUGAAUCAAGUGACCGAUAACAUAGUCCACUGCUUCAUUUAGAAAAUUUUUGCUAGAAAAACAGGUUGUAUAGUCUUCUGUGCUCAAAACUUUCCAAGAAAGCAAUUCUUUGAGCAACAGAGGAUUGAGCAUCA",
    "label": "Condition met"
  },
  {
    "binder": "chr13:59234359:59234360:+_ENSMUSG00000055254_ENSMUST00000079828|mus_mus|FALSE|FALSE (ssRNA) RNA: GGGAGUUCUACAGUCCGACGAUCUAUGUAAAAAAUUGUUUUUGCUUUAUGUUGGUGAUGAAUGGACCAAAAGUUGAUAGAUAGAUAGAUAAAUAAAUAAAUAAAUAAAUAAAUACACAAAUAAAUAACGCCGAAGGGAAAGAACAACAGAGGAUUGAGCAUCA",
    "label": "Condition not met"
  },
  {
    "binder": "chr1:112309342:112309343:+_ENSG00000064703_ENST00000369702|hu_hu|FALSE|FALSE (ssRNA) RNA: GGGAGUUCUACAGUCCGACGAUCUCUCCAGUACUCCUCAUAAUCCUGAUAGGUAUCAGAAAAACUCAGACGUAUUUCCCUAUGACAGUCAUACCAAUCAUCUUCCUGGGCUUCAGUCUGCAAUCUGAAGGAAGACCGCCUGGGCAACAGAGGAUUGAGCAUCA",
    "label": "Condition met"
  },
  {
    "binder": "121693014_121693134_369_3pUTR_ENSMUSG00000060227_ENSMUST00000078752|mouse|control|control (ssRNA) RNA: GGGAGUUCUACAGUCCGACGAUCUUCUCCAAGCGCCCGCGGGCCACCUCGGUGCGCUGGACCUGGCCCUGCAGCUCGGCCACCUCCUCCUGAAGCAGAACGUGGCGGGAGGAGAUGCUCCAGUAGUUGAAGGCAAGGACGACGCAACAGAGGAUUGAGCAUCA",
    "label": "Condition met"
  }
]

// query Please determine if chr1:23636438:23636439:-_ENSG00000125944_ENST00000302271|hu_mus|FALSE|FALSE (ssRNA) RNA: GGGAGUUCUACAGUCCGACGAUCUUUUGUAGGGCAGAUUUCAAAAAGGUGUGGUUAUAACAAUUUAAAAACACAGUUAACCUGCUUCUAGGAAUGCAAAACAUACAGUCAUAGGUUAUCUUCAAUACAAGGAAACUUAAGUCUCAACAGAGGAUUGAGCAUCA is below 1 enrichment R in terms of binding signal.
// result Condition not met

// query Does this binder meet the criterion binding signal < 1 enrichment R? 151522442_151522562_447_CDS_ENSMUSG00000034021_ENSMUST00000016569|mouse|control|control (ssRNA) RNA: GGGAGUUCUACAGUCCGACGAUCAUAAAUCCUGAAAAUAUCAGCAAGGCAGCAAGCCACCAGUAAACGAACAUCUUUAUCAGGAUGCUUGAGGAAGAAGUCAGAAGCAAGAUGUAAAGCUAGGUUUAGAUAAAGUUCCUUUUCCAACAGAGGAUUGAGCAUCA
// result Condition not met
